Attribution: the nanobody polyreactivity screen of Harvey et al. (2022)

Assay: yeast display, Sf9 membrane polyspecificity reagent, FACS + sequencing; frameworks hold sequencing errors
OBSERVABLE: polyreactivity (PSR sort gate)

Example entries begin here.
{"columns": ["SEQUENCE CODE", "OBSERVABLE", "RESULT"],
 "data": [
  ["QVHLVESGGGLVQAGGSLRISCAASGLTFQRYAMGWYRQAPGKERELVASITGNGGSTYYADSVKGRFTISRDNAQNSVYLQMNSLKPEDTAVFYCNARRYVRTSQQPLYDYWGQGTQVTVSS", "polyreactivity (PSR sort gate)", "high polyreactivity"],
  ["QVQLVESGGGLVQAGGSLRLSCAASGSTFNRNTMGWYRQAPGKERELVAAITSSGGRTYYADSVKGRFTISRDNAKNTVFLQVNSLKPEDTAVYYCATVNRVLIAGRFDSWGQGTQVTVSS", "polyreactivity (PSR sort gate)", "high polyreactivity"],
  ["QVQLVESGGCLVQAGGSLRLSCAASGRTFSYYAMGWYRQAPGKERELVAAIDWSGSRTYYADSVKGRFTISRDNAKNTVYLQMNSLKPEDTAVYYCIADRTRGYQRYDYWGQGTQVTVSS", "polyreactivity (PSR sort gate)", "high polyreactivity"],
  ["QVQLVESGGGLVQAGGSLRLSCAASGSTFSTYAMGWYRQAPGKERELVARITVSVGSTYYADSVKGRFTMSRDNAKNTVYLQMNSLKPEDTAVYYCAVGSDEVYFVGDYEYWGQGTQVTVSS", "polyreactivity (PSR sort gate)", "low polyreactivity"],
  ["QVQRVESGGGLGQAGGILLLSCAASGFTFKWYSMGWYRQARGKERELVAGISRRGGTTNYADSFKGRFTISRHNAKNTVNLQINSLKPEDPPVYYCAAESQLTKYYYWGQGTQVTVSS", "polyreactivity (PSR sort gate)", "high polyreactivity"]
]}

// query Please report the recorded polyreactivity (PSR sort gate) for `QVQLVESGGGLVQAGGSLRLSCAASGRTFGYYGLGWYRQAPGKERELVASINFSSGSTFYADSVKGRFTISRDNAKNTVYLQMNSLKPEDTAVYYCAARTDVGWYSRYGYWGQGTQVTVSS` .
// result low polyreactivity

// query Please report the recorded polyreactivity (PSR sort gate) for `QVQLVESGGGLVQAGGRLRLSCAASGGTFRLYTMASYRQAPGKERELVAGISSSSGSTYYADSVKGRFTISRDNAKNTVYLQMNSLKPEDTAVYYCAAYWPRSRYDYWGQGTQVTVSS` .
// result high polyreactivity

// query Please report the recorded polyreactivity (PSR sort gate) for `QDQLVESGGGLVQAGGSLRLSCAAYGSILGGNAMGWYRPAPGKERELVAAITFSGGGTYYADSVKGRFTISRDNAKNTVYLQMNSMKPEDTAVYYCAADKDGYTYEFDYWGQGTQVTVSS` .
// result low polyreactivity

----------
Experiment: yeast display, Sf9 membrane polyspecificity reagent, FACS + sequencing; frameworks hold sequencing errors
OBSERVABLE: polyreactivity (PSR sort gate)

Example entries begin here.
{"columns": ["SEQUENCE CODE", "RESULT"],
 "data": [
  ["QVQLVESGGGLVQAGGSLRLSCAASGLIFSSNAMGWYRQAPGKERELVAAISRRGGNTYYADSVKGRFTISRDNAKNTVYLQMNSLKPEDTAVYYCAIRYVGRGTSYQDYYWGLGTQVTVSS", "high polyreactivity"],
  ["QVQLVESGGGLVQAGCSLRLSCAASGGTFYANAKGRYRQAPGIVRELVAAITSGGSTNYADSVKGRFTISRDNAKNTVYLEINSLKPEDTAVYYCNASAQRRYWHSYFRRYDYWGQGTQVTVSS", "low polyreactivity"],
  ["QVQLVESGGGLVQAGGRLRLSCAASGSTFIGNAMGWYRQAPGKERELVAAISRTGGSTYADSVKGRFTISRDNAKNTVYLQMNSLKPEDTAVYYCAAKYYYLYYYWGQGTQVTVSS", "high polyreactivity"],
  ["QVQLVESGGGLVQPGGSLRLSCAASGSTFLVYAMGWYRQAPGKERELVAVIDNGGDTYYADSVKGRFTISRDNAKNTVYLPMNSMKPEDTEVYYCAADLSYLGYCEYDYWGQGTQVNVSS", "low polyreactivity"],
  ["QVQLQERGVGLVQAGGTISLGYDMVWYRQAPGKEREFVAGIDTCAITYYADSVKGRFTNSRDNAKNTVYLQMNILNPEDTAVYYCAANQTHTYAHSYWGQGTQVTVSS", "high polyreactivity"],
  ["QVQLVESGGGLVQAAGSLRLSCAASGSIFLSYAMGWYRQAPGKERELVAAITTDGGTNYADSVKGRFTISRDNAKNTVYLQMNSLKPEDSAVYYCAADSDPIPLIDYTLPMDYWGQGTQVTVSS", "low polyreactivity"],
  ["QVQLVESGGGLVQAGGSLRISCAASGSIFGYNTMGWYRQAPGKERELVAAIRGSDSSTYYADSVKGRFTISRDNAKNTVYLQMNSVIPEDTAVYYCAAKYYWGQGTQVTVSS", "high polyreactivity"],
  ["QVQLQESGGGLVQAGGSLRLSCAASGTIYWLWAMGWYCLAPGKERELVASISSGGTTYHADSVKGRFTISRDNAKYSVYLQMNSLKPEDTAVFYSAAFYVASAKLGYWGQGSQVTVSS", "low polyreactivity"],
  ["QVQLVESGGGLVQAGGSLRLSCVASGLTQPSAIGWYRHAPGKERELVPRISWRGASTYYADSVKGRFTISRDTAKNNFYLQINSLKPEDTAVYYCAARSTIQRRGYYGYRVGRSEYGYWGQGTQVTVSS", "low polyreactivity"],
  ["QVQLVESGRGLLQAGGSLRLSCAASGRIFTRYAMGWYRQAPGKERELVAAISSGGGNTYYADSVKGRFTISRYNAKNTVYLQMNILKPEDTAVYYCAALRSWRKTGGAQRYWYDYWGQGTQVTVLS", "high polyreactivity"]
]}

Lab note: next sequence to report on.
// query Please report the recorded polyreactivity (PSR sort gate) for `QVQLVESGGGLVQAGGSLRLSCAASGRTFGSYAMGWYRQAPGKERELVAAISKGGGSTYYADSVKGRFTISRDNAKNTVYLQMNSLKPEDTAVYYCAKRRFEYYYYWGQGTQVTVSS` .
// result high polyreactivity

----------
Assay: yeast display, Sf9 membrane polyspecificity reagent, FACS + sequencing; frameworks hold sequencing errors
OBSERVABLE: polyreactivity (PSR sort gate)

{"columns": ["SEQUENCE CODE", "RESULT"],
 "data": [
  ["QVQLVESGGGLVQAGGSLRLSCAASGRTFAYNDMGWYRQAPGKERELGAAISWSDGTTYYADSVKGRFTISRDNAKNTVYLQMYSLKPEDTAVYYCNADDYLTSIYRYDYWGQGTQVTVSS", "low polyreactivity"],
  ["QVQLVESGGGLVQAGGSLRLSCAASGSIFYRYSMGWYRPAPGKESELVATITQSGVTTYYADSVKGRFTISRDNAKNTVYLELNSVKPEDTAVYYCAASYYYYLGPFFRKFDWGQGTQVTVSS", "low polyreactivity"]
]}

----------
Assay: yeast display, Sf9 membrane polyspecificity reagent, FACS + sequencing; frameworks hold sequencing errors
OBSERVABLE: polyreactivity (PSR sort gate)

Example entries begin here.
{"columns": ["SEQUENCE CODE", "RESULT"],
 "data": [
  ["QVQLVESGGGLVQAGGSLRLSCAASGRIFTQNAMGWYRQAPGKERELVAAITSGGSTYYADSVKGRFTISRDNAKNTVYLQMNSLKPEDTAVYYCAKRYPYYLSTMEYWGQGTQVTVSS", "low polyreactivity"],
  ["QVQLVESGGGLVQAGGSLRLSCAASGSTFSHYTMGWYRQAPGKERQLVAAINYGGASTYDADSVKGRFTISRDNAKNTVYLQMNSLKPEDTAVYYCAAAYRPSEQYNYWGQGTQVTVSS", "low polyreactivity"],
  ["QVQLVESGGGLVQAGGSLRLSCAASGSILLIYAMGWYRQAPGKERELVAGITRGGSTNYADSVKGRFTISRDNAKNTVYLQMNSLKPEDTAVYYCASDGGPARYLVSDRDYWGQGTQVTVSS", "low polyreactivity"],
  ["QVQLVESGGGLVQAGGSLRLSCAASGRIFYGYAMGWYRQAPGKERELVAAISWRGGRTYYADSVKGRFTISRDNAKNTVYLQMNSLKPEDTAVYYCAVRWPSARIPVKLDYWGQGTQVTVSS", "high polyreactivity"],
  ["QVQLVESGGGLVQAGGSLRLSCAASGRTFRWNAMGWYRQAPGKERELVAAISSGGSTYYADSVKGRFTISRDNAKNTVYLQMNSLKPEDTAVYYCAKSSFKYRWSYPVISMDYWGQGTQVTVSS", "high polyreactivity"],
  ["QVQLVESGGGLVQAGGSLRLSCAASGSTFTPYAMGCYRQAPAKERELVAAINGGGTRTYYADSVKGRFTISRDHAKNTVFLQMNSLKPVDTAVYYCAARTSTSRSYPYNYWGQGTQVTGSS", "high polyreactivity"],
  ["QVQLVESGGRLVQAGGSLRLSCAASGRILYVNNMGWYRQAPGKERELVAGITSRVGSTYYADSVKGRFTISRDNAKNTVYLQMNSLKPEDSAVYYCNARSTWRHRRDQVDFDYWGQGTQVSVSS", "low polyreactivity"],
  ["QVQLVESGGGLVQAGGSLRLICAASGFTIVPNAMGWYRQAPGKERELVAAISRSTGGTYYADSVKGRFTISRDNAKNTVYLQMNSLKPEDTAVYYCAAEYWYWTYGMDYWGQGTQVTVSS", "high polyreactivity"]
]}

// query Please report the recorded polyreactivity (PSR sort gate) for `QDQLVESGGGLVQAGGSLRLSCAASGFTFYRYAMGWYRQAPGKERELVATIRNGGNTNYADSVKGRFTISRDNAKNTVYVQMNSLKPEDTAVYYCAKTVLAGMDWGQGTQVTVSS` .
// result high polyreactivity

// query Please report the recorded polyreactivity (PSR sort gate) for `QVQLVESGGGLVQAGGILRLSCAASGSTFGENAMGWYRQSPGKERELVAAISRASSTDYADSVKGRFTISRDNAKNTVYLQMNSLKPEDTAVYYCAVSIFGSFNYDFYSWGQGTQVTVSS` .
// result low polyreactivity

// query Please report the recorded polyreactivity (PSR sort gate) for `QVQLVESGGGLVQAGGSLRLSCAASGSTFRGNAMGWYRQAPGKERELVAAISESGTDTYYADSVKGRFTISRDNAKKTVYLLMNSLKPEDTAVYYCAKDYSGTYYAQYNYWGQGTQVTVSS` .
// result low polyreactivity

// query Please report the recorded polyreactivity (PSR sort gate) for `QVQLVESGGGLVQAGGSLRLSCAASGSIFASNAMGWYRQAPGKERELVADISGTTGSTYYADSVKGRFTISRDNAKNTVYLQMNSLKPEDTAVYYCAADLVWVSTSYYYWGQGTLVTVSS` .
// result low polyreactivity

// query Please report the recorded polyreactivity (PSR sort gate) for `QVQLVESGGGLVQAGGSLRLSCAASGSIFQYYVMGWYRQAPGKERELDAAIRRSGTTYYADSVKGRFTISRDNAKNTVYLQMNSLKPEDTAVDYCNADSIYYYYLIEYEYWGQGSQVTVSS` .
// result low polyreactivity

// query Please report the recorded polyreactivity (PSR sort gate) for `QVQLVESGGGLVQAGGSLRLSCAAYGSIFYYYAKGWYRQAPGKERELVAAINGGDTYYADSVKGRFTISRDNAKNTVYLHMNSLKPEDTAVYYCAAEGVTVEWDYDYWGQGTQVTVSS` .
// result low polyreactivity

// query Please report the recorded polyreactivity (PSR sort gate) for `QVQLVESGGGLVQAGGSLRLSCAASRIIFWFYAMGWYRQAPGKERELVAAISGDGDSTYYADSVKGRFTISRDNAKNTVYLQMNSLIPEDTAVYYCAAEWDPVFATDEDDYWGQGTQVTVSS` .
// result low polyreactivity

// query Please report the recorded polyreactivity (PSR sort gate) for `QVQLVESGGVLVQAGGSLRLSCASSGSIFYIYGMGWSRQAPWKERELVARISSGDRTNYADSVKGRFTISRDNAKNRVYLQMNSRNPDDTAVYYCAAKKRKIAGVGGDYWGQGTQVTVSS` .
// result high polyreactivity
